Origin of the recorded values: the supplement of paper PMC7156485

Documented H1.0 immunofluorescence intensity across a set of molecules
- Test system: TDF;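 further: TDF is a line of transformed human dermal fibroblasts of mesenchymal origin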
- Assay Name: H1.0 immunofluorescence intensity relative to DMSO (% of DMSO); higher = stronger H1.0 induction, active = 120 or more
- Cond: concentration: 10 µM; 24 h
Assay Endpoint: H1.0 immunofluorescence intensity

[[record]]
molecule = "CCCCCCCCCCCCCCCCCCCCCC(=O)O"
experimental_target = "TDF"
observed_value = 101

[[record]]
molecule = "CNc1cc(NS(=O)(=O)c2ccc(N)cc2)nc(NC)n1.Cl.Cl [Ro 04-6790 dihydrochoride]"
experimental_target = "TDF"
observed_value = 98.7

[[record]]
molecule = "CC(=O)OC1(C(C)=O)CCC2C3CC(C)C4=CC(=O)CCC4(C)C3CCC21C (centres undefined) [Medroxyprogesterone 17-Acetate]"
experimental_target = "TDF"
observed_value = 102

[[record]]
molecule = "O=C(C=Cc1ccc(O)c(O)c1)OC1CC(O)(C(=O)O)CC(O)C1O (centres undefined)"
experimental_target = "TDF"
observed_value = 103

[[record]]
molecule = "O=S1(=O)CCN(CN2CCS(=O)(=O)NC2)CN1"
experimental_target = "TDF"
observed_value = 88.2

[[record]]
molecule = "Cc1ccc(C(=O)c2cc(O)c(O)c([N+](=O)[O-])c2)cc1"
experimental_target = "TDF"
observed_value = 93.3

[[record]]
molecule = "CC(=O)O.O=C(O)c1ccc2c3c1cccc3c(=O)n1c3ccccc3nc21"
experimental_target = "TDF"
observed_value = 91.3

[[record]]
molecule = "Cc1cccc(C)c1OCC(C)N.Cl (centres undefined) [Mexiletene hydrochloride]"
experimental_target = "TDF"
observed_value = 87.8

[[record]]
molecule = "Fc1ccc(C2CCNCC2COc2ccc3c(c2)OCO3)cc1 (centres undefined)"
experimental_target = "TDF"
observed_value = 99.1

